read-out: Monokine induced gamma interferon (MIG), CXCL9 (gene 4283); experiment: BSK_SAg_MIG: BioMAP Diversity Plus: SAg Assay for Monokine induced gamma interferon (MIG) Biomarker Activity (AID 2283092); conditions: primary human HUVEC with PBMC; actives raise or lower the signal
Activity calls are given as the source filed them. Rule for the calls: active = hit-call score of the fitted dose curve at least 0.9, where 1 is the maximum; inactive = score below 0.9.
Give one outcome, nothing more. List: active, inactive

CC(C)(C)c1cc([N+](=O)[O-])cc(C(C)(C)C)c1O; inactive
Clc1cccc(Cl)c1; inactive
c1ccc2sc(SNC3CCCCC3)nc2c1; inactive
Cc1cc(C(C)(C)c2ccc(O)c(C)c2)ccc1O; inactive
COc1ccccc1N; inactive
O=C(N[C@H]1CN2CCC1CC2)c1ccc2c(c1)OCCO2; inactive
CC1(C)[C@H](C(=O)O[C@H](C#N)c2cccc(Oc3ccccc3)c2)[C@@H]1/C=C(\Cl)C(F)(F)F; inactive
NC(=O)CCl; inactive
Cc1ccccc1OP(=O)(Oc1ccccc1C)Oc1ccccc1C; active
CC(C)=CC1C(C(=O)OCc2cccc(Oc3ccccc3)c2)C1(C)C (centres undefined); inactive

[Q] I'd appreciate the recorded outcome for COCC(=O)N(c1c(C)cccc1C)[C@H](C)C(=O)OC from this test.
[A] inactive

[Q] Write down the call the test reported for this compound. Item: Oc1c(Br)cc(Br)cc1Br
[A] inactive

[Q] What was the test verdict on O=[N+]([O-])c1ccc(Nc2ccccc2)cc1 ?
[A] inactive

[Q] Short answer needed: outcome of this test for Oc1cccc(-c2ccccc2)c1 ?
[A] inactive
